Test system: MDA-MB-231 breast
experimental protocol: NCI tumour cell line growth inhibition, 48 h
reported endpoint: TGI

CC[C@@]1(O)C(=O)OCc2c1cc1n(c2=O)Cc2c-1nc1ccccc1c2/C=N\NC(=O)C(N)Cc1cnc[nH]1 (some centres undefined) :: > 100 µM
COC(OC)(c1ccccc1)C(I)I :: 36.4 µM
OCCN=C1c2ccccc2C2C(c3ccccc31)C1c3ccccc3C(=NCCO)c3ccccc3C21 (centres undefined) :: 31.4 µM
NC12CC3CC4C1CC1CC2C(C3)C4(N)C1 :: > 100 µM
O=C1OC(C2OC(=O)c3cc(O)c(O)c(O)c3-c3c(O)c(O)c4oc(=O)c5c(c(O)c(O)c6oc(=O)c3c4c65)-c3c(cc(O)c(O)c3O)C(=O)OCC2O)C2OC(=O)c3c(c(O)c(O)c(O)c3[C@H]2O)-c2c1cc(O)c(O)c2O (some centres undefined) :: 33.7 µM
COc1cc2cc(C(=O)N3CC(CCl)c4c3cc(N(C)C)c3ccccc43)[nH]c2c(OC)c1OC (centres undefined) :: > 100 µM
CCc1n[nH]c(=O)n1NC(=O)c1ccccc1C(=O)O :: > 100 µM
Cc1cccc2c1NC(=O)[C@@]21[C@H](C(=O)c2ccccc2)[C@]2(C(=O)Nc3ccccc32)[C@H]2CCCN21 :: > 100 µM
O=C1OC[C@@H]2Cc3c([nH]c4ccccc34)[C@@H](c3cc(O)c(O)c(O)c3)N12 :: 42.3 µM
Cc1ccc(Nc2sc(C)cc2C#N)c([N+](=O)[O-])c1 :: > 100 µM
COC1CC2C=CC3C4OC2(/C(C)=C/C(C)C(C(C)O)OC1=O)C3C(O)C(C)C4OC(=O)c1ccc[nH]1 (centres undefined) :: > 100 µM
O=C1/C(=C/c2cccs2)NC(=S)N1CN1CCOCC1 :: > 100 µM
COc1ccc(C(=O)C(Br)C(Br)C(=O)O)cc1 (centres undefined) :: > 100 µM
Cc1ccc2c(N/N=C\c3ccco3)cc(C)nc2n1 :: 13.5 µM
O=C1/C(=C/c2ccccc2Br)COc2ccc(O)c(O)c21 :: 6.17 µM
COc1ccc(-c2csc(NC(=O)N3CCN(c4cc5c(cc4F)c(=O)c(C(=O)O)cn5C4CC4)CC3)n2)cc1 :: > 100 µM
CC(C)CC1[C@@H](OCc2ccccc2)COS(=O)(=O)N1Cc1ccccc1 (some centres undefined) :: > 100 µM
COc1ccc(N=C2C(=Nc3ccc(OC)cc3)N(S(=O)(=O)c3ccccc3)C(=S)N2c2ccc(OC)cc2)cc1 :: 92.1 µM
COc1ccc(C2SCC(=O)N2NC(=O)C(C)Oc2ccccc2Cl)cc1 (centres undefined) :: > 100 µM

====

Readings of GI50 for the listed compounds
Tested on: T-47D breast
experimental protocol: NCI tumour cell line growth inhibition, 48 h
reported endpoint: GI50

CCn1cc(C(=O)N/N=C/c2cccc(F)c2)c(=O)c2cc(F)c(N3CCNC(C)C3)c(F)c21 (stereo not given) :: 1.61 µM
O=C1/C(=C/c2ccccc2Br)COc2ccc(O)c(O)c21 :: 2.25 µM
O=C1C=C(N2CC2)C(=O)C=C1N1CC1 :: 0.0516 µM
O=C(Nc1ccc(Cl)cc1)c1cc2cc(F)ccc2cc1O :: 0.941 µM
CN(C)CCCN=c1cc2c(=O)n(CCCN(C)C)c(=O)c3c(NCCCN(C)C)cc4c(O)n(CCCN(C)C)c(=O)c1c4c3-2 :: 2.35 µM
N=C1C(c2nc3ccccc3s2)=C(O)CN1c1ccc(Cl)cc1Cl :: 44.9 µM
CC1(C)CCC2(C(=O)O)CC[C@]3(C)C(=CCC4C5(C)CC[C@H](OC6OC(C(=O)O)C(O)C(OC7OC(CO)C(O)C(O)C7O)C6OC6OC(CO)C(O)C(O)C6O)C(C)(C)C5CCC43C)C2C1 (stereo not given in full) :: > 100 µM
NC(=O)c1cc(Cl)ccc1NC(=O)c1ccccc1-c1ccccc1 :: 1.74 µM
CCC1CCCCN1C(=S)N/N=C(\C)c1ccccn1 (stereo not given) :: < 0.0146 µM
Oc1ccc2ccccc2c1N=Nc1ccccn1 :: 0.681 µM
C=C1SC(=Nc2ccccc2Cl)N(C(=O)c2sc3ccccc3c2Cl)C1(C)C :: 3.09 µM
O=S(=O)(NCCCNc1cc(-c2cn(-c3ccccc3)nc2-c2cccc(O)c2)ccn1)c1cccc2ccccc12 :: 2.14 µM
CNC(=O)c1cncc(/C=C/c2c(C)cccc2C)c1 :: > 25 µM
Cc1cccc2c1O/C(=C\c1ncc([N+](=O)[O-])n1C)C2=O :: 9.23 µM
CN(C)Cc1cccc(CN(C)C)[c]1[Sn]([Br])([c]1ccccc1)[c]1ccccc1 :: 4.72 µM

====

Test system: T-47D breast
experimental protocol: NCI tumour cell line growth inhibition, 48 h
The following molecules are shown together with reported TGI values.
reported endpoint: TGI (µM)

O=C(Nc1ccc(Cl)cc1)c1cc2cc(F)ccc2cc1O :: 5.36
COc1cccc2c1C(=O)c1c(O)c3c(c(O)c1C2=O)C[C@@](O)(/C(C)=N/NC(=O)c1ccccc1)C[C@@H]3OC1CC(N)C(O)C(C)O1 (stereo partly specified) :: 3.44
C/C(=N\O)c1cccc(Nc2nc3ccccc3c3occc23)c1 :: 44.7
OCCN=C1c2ccccc2C2C(c3ccccc31)C1c3ccccc3C(=NCCO)c3ccccc3C21 (stereo unspecified) :: 97
CC(=O)c1c(-c2ccccc2)c(-c2ccc(OCCN(C)C)cc2)n2ccccc12 :: 37.8
N#C[C@@]12CCCC(=O)[C@@H]1[C@H]1CCC[C@H]12 :: 41.3

====

Test system: NCI-H460 lung
experimental protocol: NCI tumour cell line growth inhibition, 48 h
reported endpoint: TGI

O=C(O[C@H]1CN[C@H](C#Cc2cc3ncnc(Nc4ccc(OCc5cccc(F)c5)c(Cl)c4)c3s2)C1)N1CCOCC1 :: > 25 µM
CC1=C(C(=O)Nc2ccccc2)C(c2ccc(C)o2)C(C#N)=C(SCc2ccccc2)N1 (centres undefined) :: > 100 µM
O=C1OC[C@@H]2Cc3c([nH]c4ccccc34)[C@@H](c3cc(O)c(O)c(O)c3)N12 :: > 100 µM
CC(=O)c1c(-c2ccccc2)c(-c2ccc(OCCN(C)C)cc2)n2ccccc12 :: 26 µM

====

Below is a list of entries, each paired with its recorded TGI value.
Test system: OVCAR-8 ovarian
experimental protocol: NCI tumour cell line growth inhibition, 48 h
Where a SMILES comes first, the peptide text is derived from it. [ ]: non-standard residue; d: D form. The star is where a group is joined. ξ: configuration not given here. Propanoyl(3-(4-MeO-Ph)) = COc1ccc(CCC(=O)*)cc1; Thr(3ξ) = CC(O)[C@H](N)C(=O)O; dNMeL = CN[C@H](CC(C)C)C(=O)O; OBn = c1ccc(CO*)cc1; ξLac = CC(O)C(=O)O
reported endpoint: TGI

COC(=O)[C@H](Cc1ccccc1)NP(=O)(O)OCC1OC(n2cc(C)c(=O)[nH]c2=O)CC1N=[N+]=[N-] (some centres undefined) :: > 100 µM
CN(C)CCNC1=CC(=O)c2c(O)ccc(O)c2C1=O :: 25.9 µM
N#C/C(=C/C=C/c1ccccc1)S(=O)c1ccccc1 (centres undefined) :: 1.73 µM
N#CC(C(=O)CCC(=O)Nc1ccc(Cl)cc1)c1ccccc1Cl (centres undefined) :: > 100 µM
O=C(CN1CCOCC1)CC(O)(C(F)(F)F)C(F)(F)F :: > 100 µM
COc1ccc(CCC(=O)OC(C)[C@H](NC(=O)[C@@H](CC(C)C)N(C)C(=O)[C@@H]2CCCN2C(=O)C(C)O)C(=O)OCc2ccccc2)cc1 (some centres undefined) (H-[ξLac]P[dNMeL][Thr(3ξ)](Propanoyl(3-(4-MeO-Ph)))-OBn) :: > 100 µM
O=C(OCC1CCCN2CCCCC12)c1ccncc1 (centres undefined) :: > 100 µM
O=C1C(Cl)=C(Nc2cccc(O)c2)C(=O)N1c1cccc(Cl)c1 :: > 100 µM
COc1cc2c3c(n(Cc4ccccc4)c(=O)c2cc1OC)-c1ccccc1C3=O :: > 100 µM

====

Tested on: OVCAR-4 ovarian
experimental protocol: NCI tumour cell line growth inhibition, 48 h
Where a SMILES comes first, the peptide text is derived from it. [ ]: non-standard residue; d: D form. The star is where a group is joined. ξ: configuration not given here. Propanoyl(3-(4-MeO-Ph)) = COc1ccc(CCC(=O)*)cc1; Thr(3ξ) = CC(O)[C@H](N)C(=O)O; dNMeL = CN[C@H](CC(C)C)C(=O)O; OBn = c1ccc(CO*)cc1; ξLac = CC(O)C(=O)O
reported endpoint: TGI

CCCCCCCC(=O)OCC1OC(n2cc(F)c(=O)[nH]c2=O)C(NC(=O)OCc2ccccc2)C(OC(=O)CCCCCCC)C1O (centres undefined) :: 83 µM
COC1OC(CBr)C(OC(c2ccccc2)(c2ccccc2)c2ccccc2)C(OC(c2ccccc2)(c2ccccc2)c2ccccc2)C1OC(c1ccccc1)(c1ccccc1)c1ccccc1 (centres undefined) :: 60.8 µM
NCCCc1c(-c2ccccc2)nc(N)[nH]c1=O :: > 100 µM
CSc1nc(O)c(/C=C2\C=Nc3ccccc32)[nH]1 :: > 100 µM
CN(C)CCNC1=CC(=O)c2c(O)ccc(O)c2C1=O :: 15.7 µM
Cc1ccc(O)c(-c2csc(NCN3CCN(CNc4nc(-c5cc(C)ccc5O)cs4)CC3)n2)c1 :: > 100 µM
Cc1ccc(/C=N/NC2=NCCN2)s1 :: > 100 µM
O=C(O)CCSC(=O)Nc1cccc([N+](=O)[O-])c1 :: > 100 µM
COc1cc([C@@H]2c3cc4c(cc3[C@@H](NCc3ccc(C#N)cc3)C3COC(=O)[C@@H]32)OCO4)cc(OC)c1O (some centres undefined) :: > 100 µM
N/C(=N\c1nc2ccccc2s1)NC(=O)Nc1ccccc1Cl :: 8.53 µM
COc1cccc2c1C(=O)c1c(O)c3c(c(O)c1C2=O)C[C@@](O)(/C(C)=N/NC(=O)c1ccccc1)C[C@@H]3OC1CC(N)C(O)C(C)O1 (some centres undefined) :: 7.74 µM
CC(C)c1cccc(C(C)C)c1N=C(N)C#N :: > 100 µM
O=C(COc1ccc(Cl)cc1)N1N=C(c2ccc([N+](=O)[O-])o2)CC1(O)c1ccccc1 (centres undefined) :: 26.7 µM
O=C1CCC2=C3C4CCCCC4C(=O)C4CCCC(OC2C1)C34 (centres undefined) :: > 25.1 µM
CN(C)c1ccc2cc(-c3cc4c(oc3=O)-c3ccccc3OC4O)c(=O)oc2c1 (centres undefined) :: > 25 µM
C[C@@H](Oc1cc(NS(=O)(=O)N2CCC2)nc(SCc2cccc(F)c2F)n1)[C@@H](O)CO :: > 100 µM
COc1ccc(-c2nc(N)c3ncn(C4OC(CO)C(O)C4O)c3n2)cc1 (centres undefined) :: > 100 µM
CC(=O)NNC(=S)/N=C/c1c(O)cc(C)oc1=O :: > 100 µM
CN(C1=NS(=O)(=O)N=C(N(C)c2ccccc2)O1)c1ccccc1 :: 51.5 µM
O=c1c(-c2ccccc2Cl)coc2cc(F)ccc12 :: > 100 µM
CC[C@@]1(O)C(=O)OCc2c1cc1n(c2=O)Cc2c-1nc1ccccc1c2/C=N\NC(=O)C(N)Cc1cnc[nH]1 (some centres undefined) :: > 100 µM
Cc1ccc(NC(=O)CC/C(CC(=O)c2ccc(Cl)cc2)=N\NC(=O)C(=O)NN)cc1C :: > 100 µM
O=C(OCC1CCCN2CCCCC12)c1ccncc1 (centres undefined) :: > 100 µM
CCOC(=O)c1c(C)[nH]c(/C=C2\N=C(c3ccc[nH]3)C=C2OC)c1C :: 2.81 µM
ClC1(c2ccccc2)c2ccc(Br)cc2-c2cc(Br)ccc21 :: 27.3 µM
Nn1c(SCC(=O)NCc2ccccc2)nc2ccccc2c1=O :: > 100 µM
O=C(Nc1ccc(Cl)cc1)c1cc2cc(F)ccc2cc1O :: 8.99 µM
COc1ccc(CCC(=O)OC(C)[C@H](NC(=O)[C@@H](CC(C)C)N(C)C(=O)[C@@H]2CCCN2C(=O)C(C)O)C(=O)OCc2ccccc2)cc1 (some centres undefined) (H-[ξLac]P[dNMeL][Thr(3ξ)](Propanoyl(3-(4-MeO-Ph)))-OBn) :: > 100 µM
N#CC(C(=O)CCC(=O)Nc1ccc(Cl)cc1)c1ccccc1Cl (centres undefined) :: > 100 µM
CC(=O)N1N=C(N)CC1=O :: > 100 µM
COC(=O)[C@H](Cc1ccccc1)NP(=O)(O)OCC1OC(n2cc(C)c(=O)[nH]c2=O)CC1N=[N+]=[N-] (some centres undefined) :: > 100 µM
CC(C)(C)N1CC(OC(N)=O)C1 :: > 100 µM
NC(=O)c1cc(Cl)ccc1NC(=O)c1ccccc1-c1ccccc1 :: > 100 µM
CC(=O)O[C@H]1CC[C@@]2(C)C(=CC[C@@H]3[C@@H]2CC[C@]2(C)c4c(cc(C#N)c(=N)n4C(C)=O)C[C@@H]32)C1 :: 39.4 µM
COc1ccc(Nc2nc(N)c(C(=O)c3ccccc3)s2)cc1 :: > 60.8 µM
CCOC(=O)CNC1C(NC(C)=O)C(OC)OC2COC(c3ccccc3)OC21 (centres undefined) :: > 100 µM
COc1cc(/C=C/C(=O)N[C@@H]2C(=O)N3[C@@H]2SC(C)(C)[C@@H]3C(=O)O)cc(OC)c1OC :: > 100 µM
Clc1ccc2c(NCCNc3ccnc4cc(Cl)ccc34)ccnc2c1 :: 35.5 µM
CC1=C(C(=O)NCC(C)O)CC(C(=O)NCC(C)O)=C(C)N1 (centres undefined) :: > 100 µM
